B1: tRNA (parent)
chain: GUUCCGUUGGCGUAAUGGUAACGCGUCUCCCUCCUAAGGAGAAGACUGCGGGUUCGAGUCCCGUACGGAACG

# Variants of: B1
# ASSAY NAME: yeast fitness relative to wild type (ratio to wild type); higher = fitter; tRNA-Arg(CCU), competitive growth, 37 C, YPD
Fewer inactive variants are shown than the library holds.
The reader will find reported yeast fitness values listed item by item below.

{"MUT": "C11G C31G A42U A65C", "yeast fitness": 0.602}
{"MUT": "C29A U35C A45U C60G G63C", "yeast fitness": 0.538}
{"MUT": "U64A C66U", "yeast fitness": 0.942}
{"MUT": "C30U A42C G48C A65C", "yeast fitness": "≤ 0.5"}

IN: For the variant C55A U59C , give its reported yeast fitness.
OUT: 0.647

IN: For the variant A14G G41A A69C , give its reported yeast fitness.
OUT: ≤ 0.5

IN: For the variant G38C C62A G67C , give its reported yeast fitness.
OUT: ≤ 0.5

IN: For the variant U19A C24A C31G C62U G68C , give its reported yeast fitness.
OUT: 0.535

IN: For the variant G6C A43C G50A , give its reported yeast fitness.
OUT: ≤ 0.5

IN: For the variant C24G C27U C33U G50C G63A G68A , give its reported yeast fitness.
OUT: 0.528

IN: For the variant A20U G25C C49G A65C A70U , give its reported yeast fitness.
OUT: ≤ 0.5
